Listed next: entries and their corresponding inhibition at 1 µM.
Test system: UniProt Q8R2Y0
Sequence (Q8R2Y0 whole entry): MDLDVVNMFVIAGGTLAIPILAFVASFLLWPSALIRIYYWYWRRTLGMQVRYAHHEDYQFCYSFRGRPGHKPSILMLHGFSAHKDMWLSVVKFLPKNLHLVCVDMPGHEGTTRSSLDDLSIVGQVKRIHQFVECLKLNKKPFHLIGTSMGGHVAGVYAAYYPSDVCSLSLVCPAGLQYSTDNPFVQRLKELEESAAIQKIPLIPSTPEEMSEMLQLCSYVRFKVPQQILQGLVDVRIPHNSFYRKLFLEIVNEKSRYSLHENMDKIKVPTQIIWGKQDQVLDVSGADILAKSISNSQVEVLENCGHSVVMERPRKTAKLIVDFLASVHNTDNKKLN
Assay procedure: Competitive ABPP, % inhibition at 1 uM, ABHD6
Assay type: biochemical

Cc1cc(-c2cccnc2C)ccc1CN1CCN(C(=O)OC(C(F)(F)F)C(F)(F)F)CC1 [Example 11s]	25 to 75%
C[C@@H]1CN(Cc2ccc(N3CCOCC3)cc2Cl)CCN1C(=O)OC(C(F)(F)F)C(F)(F)F [Example 9am]	< 25%
Cc1cc(-c2ccc(CN3CCN(C(=O)OC(C(F)(F)F)C(F)(F)F)CC3)c(F)c2)cc(C)n1 [Example 11aa]	25 to 75%
Cc1nc(-c2ccccc2F)ccc1CN1CCN(C(=O)OC(C(F)(F)F)C(F)(F)F)CC1 [Example 11c]	25 to 75%

Exercise: Please give the measured inhibition at 1 µM for this compound: Cc1cc(-c2ccc(CN3CCN(C(=O)OC(C(F)(F)F)C(F)(F)F)CC3)c(F)c2)ccn1 [Example 11g]
Key: > 75%

Exercise: Please give the measured inhibition at 1 µM for this compound: COc1ccc(-c2cc(CN3CCN(C(=O)OC(C(F)(F)F)C(F)(F)F)CC3)no2)cc1 [Example 10a]
Key: 25 to 75%

Exercise: Please give the measured inhibition at 1 µM for this compound: O=C(OC(C(F)(F)F)C(F)(F)F)N1CCN(Cc2cc(Cl)ccc2N2CCCC2)CC1 [Example 9n]
Key: 25 to 75%

###

Test system: MAGL (Mus musculus (Mouse), UniProt O35678)
Sequence (O35678 whole entry): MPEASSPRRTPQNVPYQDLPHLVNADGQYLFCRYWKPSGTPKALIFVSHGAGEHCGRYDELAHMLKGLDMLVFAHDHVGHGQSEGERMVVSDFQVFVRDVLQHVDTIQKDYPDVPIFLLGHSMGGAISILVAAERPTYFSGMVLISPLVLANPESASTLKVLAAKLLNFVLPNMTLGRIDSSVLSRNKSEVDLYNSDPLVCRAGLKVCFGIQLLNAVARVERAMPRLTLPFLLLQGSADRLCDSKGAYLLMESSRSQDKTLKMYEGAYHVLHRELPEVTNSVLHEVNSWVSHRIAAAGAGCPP
Assay procedure: In vitro competitive activity-based protein profiling (FP-Rh), mouse MAGL
Assay type: biochemical
Assay setup: mouse brain membrane proteome, competitive ABPP
Result type: IC50

Take a look at these entries with their results.
O=C(O)C(OC(=O)N1CCN(C(c2ccc(Cl)cc2)c2ccc(Cl)cc2)CC1)C(F)(F)F (stereo not drawn) [Example 6i]	> 1000 nM
CC(=O)Nc1ccc(S(=O)(=O)N2CCN(C(=O)OC(C(F)(F)F)C(F)(F)F)CC2)cc1 [Example 4e]	> 1000 nM
O=C(OC(C(F)(F)F)C(F)(F)F)N1CCN(C(c2ccc3c(c2)OCO3)c2ccc3c(c2)OCO3)CC1 [Example 2d]	< 100 nM
CC(C)(C)OC(=O)N1CCN(C(=O)OC(C(F)(F)F)C(F)(F)F)CC1 [Example 3d]	> 1000 nM
O=C(OC(C(F)(F)F)C(F)(F)F)N1CCN(C(=O)c2ccc(-c3ccccc3)cc2)CC1 [Example 3c]	> 1000 nM

Exercise: Please give the measured IC50 for this molecule: CC(C)c1cc(C(C)C)c(S(=O)(=O)N2CCN(C(=O)OC(C(F)(F)F)C(F)(F)F)CC2)c(C(C)C)c1 [Example 4f]
Key: > 1000 nM

Exercise: Please give the measured IC50 for this molecule: O=C(OC(C(F)(F)F)C(F)(F)F)N1CCN(C(c2ccc(F)cc2)c2ccc(F)cc2)CC1 [Example 2a]
Key: < 100 nM

Exercise: Please give the measured IC50 for this molecule: Cc1ccccc1S(=O)(=O)N1CCN(C(=O)OC(C(F)(F)F)C(F)(F)F)CC1 [Example 4g]
Key: 100 to 1000 nM

Exercise: Please give the measured IC50 for this molecule: CC(C)(C)c1ccc(S(=O)(=O)N2CCN(C(=O)OC(C(F)(F)F)C(F)(F)F)CC2)cc1 [Example 4c]
Key: < 100 nM
